Tested on: Liposcelis bostrychophila
Method Description: Insecticidal activity against adult Liposcelis bostrychophila (booklice) assessed as repellent activity at 1.6 nL/cm2 after 2 hr
Type: functional
Below: a set of entries, each annotated with reported Repellency.
Entry format: amount then unit.

Below, 2 molecules whose answers are already recorded.
**Query** Name the reported Repellency value associated with the molecule C=C(C)[C@H]1CC=C(C)CC1 [D-LIMONENE]
**Result** -6%

**Query** Name the reported Repellency value associated with the molecule CC(C)=CCC[C@@H](C)CC=O [CITRONELLAL]
**Result** -10%

Next:
**Query** Name the reported Repellency value associated with the molecule CC(C)=CCC/C(C)=C/CO [GERANIOL]
**Result** 42%

**Query** Name the reported Repellency value associated with the molecule CCN(CC)C(=O)c1cccc(C)c1 [DIETHYLTOLUAMIDE]
**Result** 46%

**Query** Name the reported Repellency value associated with the molecule CC(C)=CCC[C@@H](C)CCO [(+)-CITRONELLOL]
**Result** 28%
